- experiment_description: Toxicity against brine shrimp assessed as mortality at 25 ppm after 4 hrs
- Format: organism-based
- condition: artemia, in vivo; read-out: Activity
measurement_kind: mortality at 4 h, 25 ppm
Answer as a quantity: numeral, then unit.

Completed entries (count: 5):
# smiles_entry, mortality at 4 h, 25 ppm
rows = [
    ("CC(=O)/C=C/Cc1c[nH]c2ccccc12", "0%"),
    ("CC(=O)/C=C/c1c[nH]c2ccccc12", "0%"),
    ("CC(=O)/C=C/c1ccc(C)c(C)c1C", "0%"),
    ("Cc1cccc2c1[nH]c1ccccc12", "82%"),
    ("CC(=O)/C=C/C(C)=C(\\C)c1c[nH]c2ccccc12", "20%"),
]

Exam item: Which mortality at 4 h, 25 ppm is listed for `CC(=O)c1nccc2c1[nH]c1ccccc12` ?
Marked response: 14%

---

- experiment_description: Toxicity against brine shrimp assessed as mortality at 25 ppm after 8 hrs
- Type: organism-based
- condition: artemia, in vivo; read-out: Activity
Hi, to clarify the labels: Y covers mortality at 8 h, 25 ppm from 40% upward, N covers anything below 40%.

Observe how each entry below is paired with its result.
# smiles_entry, qualitative_label
rows = [
    ("CC(=O)/C=C/c1ccc(C)c(C)c1C", "Y"),
    ("CC(=O)/C=C/C(C)=C(\\C)c1c[nH]c2ccccc12", "N"),
    ("CC(=O)/C=C/Cc1c[nH]c2ccccc12", "N"),
    ("CC(=O)/C=C/c1c[nH]c2ccccc12", "N"),
]

Note: attention shifts to another entry.
Exam item: hey, is mortality at 8 h, 25 ppm for this one >= 40%? `CC(=O)c1nccc2c1[nH]c1ccccc12`
Marked response: Y
